ASSAY TARGET: T1, human CD3 E&D complex protein (Sino Biological Inc., CT026H0323H) (human, UniProt P07766 23-126; P04234 22-105)
T1 construct: bought heterodimer; also called human CD3 protein (CT026H0323H)
T1 sequence (P07766 23-126, chain 1 of 2): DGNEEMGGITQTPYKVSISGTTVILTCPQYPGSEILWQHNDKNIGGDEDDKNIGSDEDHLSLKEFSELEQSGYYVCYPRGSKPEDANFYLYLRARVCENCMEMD
T1 sequence (P04234 22-105, chain 2 of 2): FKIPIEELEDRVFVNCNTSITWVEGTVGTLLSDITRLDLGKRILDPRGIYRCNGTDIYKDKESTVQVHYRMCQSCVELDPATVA
ASSAY METHOD TEXT: BLI, antibody on sensor
READOUT KIND: kon (M⁻¹ s⁻¹)

>>> endpoint_value("hzsp34.22 (antibody, human IgG1, lambda, L234A L235A, V domains shown, IgG1 L234A L235A, lambda) VH: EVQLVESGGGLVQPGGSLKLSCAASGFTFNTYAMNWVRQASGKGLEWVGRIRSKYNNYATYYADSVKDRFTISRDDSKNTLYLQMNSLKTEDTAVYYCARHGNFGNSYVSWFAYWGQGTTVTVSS VL: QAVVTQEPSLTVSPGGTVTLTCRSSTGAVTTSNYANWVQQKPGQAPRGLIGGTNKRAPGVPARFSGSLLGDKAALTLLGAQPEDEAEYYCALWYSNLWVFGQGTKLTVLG")
"3.54e+06"
>>> endpoint_value("hzsp34.42 (antibody, human IgG1, kappa, L234A L235A, V domains shown, IgG1 L234A L235A, kappa) VH: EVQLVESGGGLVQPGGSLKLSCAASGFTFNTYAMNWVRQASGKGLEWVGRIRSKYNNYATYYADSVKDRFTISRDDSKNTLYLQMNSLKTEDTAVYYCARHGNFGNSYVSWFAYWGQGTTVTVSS VL: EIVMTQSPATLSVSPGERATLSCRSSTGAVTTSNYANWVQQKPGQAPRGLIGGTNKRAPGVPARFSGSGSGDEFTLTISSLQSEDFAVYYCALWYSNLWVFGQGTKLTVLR")
357000

Data origin, for the record: patent US20230374132A1
